Target: T1, IL-13Rα2 receptor (human, UniProt Q14627 27-380)
T1 sequence (looked up): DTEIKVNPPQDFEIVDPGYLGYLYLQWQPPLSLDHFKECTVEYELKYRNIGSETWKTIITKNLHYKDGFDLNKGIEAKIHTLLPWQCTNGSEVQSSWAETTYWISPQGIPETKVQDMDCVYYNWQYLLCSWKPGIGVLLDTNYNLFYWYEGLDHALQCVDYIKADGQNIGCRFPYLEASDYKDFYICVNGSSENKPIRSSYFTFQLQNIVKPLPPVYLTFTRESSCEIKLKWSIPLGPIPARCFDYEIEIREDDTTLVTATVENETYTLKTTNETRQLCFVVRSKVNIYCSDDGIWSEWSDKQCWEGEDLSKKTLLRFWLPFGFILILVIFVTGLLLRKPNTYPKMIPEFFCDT
Assay: cell-based or functional assay
Property: IC50 (ng Ab/mL), viability of A375 cells; scope: individual binders
quantity: IC50 (ng Ab/mL), viability of A375 cells

IL13Ra2-AB08-v1010-hG1-(C)_mc-0#118 (antibody, V domains shown, drug-linker mc-0#118 on cysteine (C), positions not given; drug-linker mc-0#118 on cysteine (C), positions not given; DAR 3.2 per antibody) VH: EVQLVESGGGLVQPGGSLRLSCAASGFTFSRNGMSWVRQAPGKGLEWVATVSSGGSYIYYADSVKGRFTISRDNAKNSLYLQMNSLRAEDTAVYYCARQGTTALATRFFDVWGQGTLVTVSS VL: DIQMTQSPSSLSASVGDRVTITCKASQDVGTAVAWYQQKPGKAPKLLIYSASYRSTGVPSRFSGSGSGTDFTLTISSLQPEDFATYYCQHHYSAPWTFGGGTKVEIKT
2.1
IL13Ra2-AB08-v1010-hG1-(C)_mcValCitPABC-#112 (antibody, V domains shown, drug-linker mcValCitPABC-#112 on cysteine (C), positions not given; drug-linker mcValCitPABC-#112 on cysteine (C), positions not given; DAR 4 per antibody) VH: EVQLVESGGGLVQPGGSLRLSCAASGFTFSRNGMSWVRQAPGKGLEWVATVSSGGSYIYYADSVKGRFTISRDNAKNSLYLQMNSLRAEDTAVYYCARQGTTALATRFFDVWGQGTLVTVSS VL: DIQMTQSPSSLSASVGDRVTITCKASQDVGTAVAWYQQKPGKAPKLLIYSASYRSTGVPSRFSGSGSGTDFTLTISSLQPEDFATYYCQHHYSAPWTFGGGTKVEIKT
2.2
IL13Ra2-AB08-v1010-hG1-(C)_MalPeg6C2-#117 (antibody, V domains shown, drug-linker MalPeg6C2-#117 on cysteine (C), positions not given; drug-linker MalPeg6C2-#117 on cysteine (C), positions not given; DAR 3.3 per antibody) VH: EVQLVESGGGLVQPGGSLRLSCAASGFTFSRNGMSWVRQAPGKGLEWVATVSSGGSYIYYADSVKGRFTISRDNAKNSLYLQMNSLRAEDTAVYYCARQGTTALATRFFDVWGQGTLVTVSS VL: DIQMTQSPSSLSASVGDRVTITCKASQDVGTAVAWYQQKPGKAPKLLIYSASYRSTGVPSRFSGSGSGTDFTLTISSLQPEDFATYYCQHHYSAPWTFGGGTKVEIKT
3.4
IL13Ra2-AB08-v1010-hG1-(C)_mcValCitPABC-#54 (antibody, V domains shown, drug-linker mcValCitPABC-#54 on cysteine (C), positions not given; drug-linker mcValCitPABC-#54 on cysteine (C), positions not given; DAR 3.2 per antibody) VH: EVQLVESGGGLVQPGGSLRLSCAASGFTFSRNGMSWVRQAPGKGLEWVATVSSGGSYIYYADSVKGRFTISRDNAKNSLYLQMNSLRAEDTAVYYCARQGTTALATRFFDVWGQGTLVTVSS VL: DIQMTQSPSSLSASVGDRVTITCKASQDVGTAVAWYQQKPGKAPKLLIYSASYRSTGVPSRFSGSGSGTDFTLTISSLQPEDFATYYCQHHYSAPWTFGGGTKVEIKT
3.8

The values you see were collected from patent US20130129753A1.
